Data credit: patent US10301304B2

# Assay explanation: Tissue Distribution in Rats
# Assay type: in vivo, rat
# Condition label: male, heart; rat, 5 mg/kg oral, 48 hr post dose; read-out: Tissue to Plasma Ratio, Heart
Result type: Kp at 48 hr
Give bare numbers.

Given Cc1cc(-c2cncc([C@@H](O)C(F)(F)F)c2)nc2c1C(=O)N(c1cnn(CC(F)F)c1)C2(C)C , state its recorded Kp at 48 hr.
1.39

----------
# System name: PI3K-β (Homo sapiens, UniProt P42338)
# Sequence (P42338 whole entry, species assumed): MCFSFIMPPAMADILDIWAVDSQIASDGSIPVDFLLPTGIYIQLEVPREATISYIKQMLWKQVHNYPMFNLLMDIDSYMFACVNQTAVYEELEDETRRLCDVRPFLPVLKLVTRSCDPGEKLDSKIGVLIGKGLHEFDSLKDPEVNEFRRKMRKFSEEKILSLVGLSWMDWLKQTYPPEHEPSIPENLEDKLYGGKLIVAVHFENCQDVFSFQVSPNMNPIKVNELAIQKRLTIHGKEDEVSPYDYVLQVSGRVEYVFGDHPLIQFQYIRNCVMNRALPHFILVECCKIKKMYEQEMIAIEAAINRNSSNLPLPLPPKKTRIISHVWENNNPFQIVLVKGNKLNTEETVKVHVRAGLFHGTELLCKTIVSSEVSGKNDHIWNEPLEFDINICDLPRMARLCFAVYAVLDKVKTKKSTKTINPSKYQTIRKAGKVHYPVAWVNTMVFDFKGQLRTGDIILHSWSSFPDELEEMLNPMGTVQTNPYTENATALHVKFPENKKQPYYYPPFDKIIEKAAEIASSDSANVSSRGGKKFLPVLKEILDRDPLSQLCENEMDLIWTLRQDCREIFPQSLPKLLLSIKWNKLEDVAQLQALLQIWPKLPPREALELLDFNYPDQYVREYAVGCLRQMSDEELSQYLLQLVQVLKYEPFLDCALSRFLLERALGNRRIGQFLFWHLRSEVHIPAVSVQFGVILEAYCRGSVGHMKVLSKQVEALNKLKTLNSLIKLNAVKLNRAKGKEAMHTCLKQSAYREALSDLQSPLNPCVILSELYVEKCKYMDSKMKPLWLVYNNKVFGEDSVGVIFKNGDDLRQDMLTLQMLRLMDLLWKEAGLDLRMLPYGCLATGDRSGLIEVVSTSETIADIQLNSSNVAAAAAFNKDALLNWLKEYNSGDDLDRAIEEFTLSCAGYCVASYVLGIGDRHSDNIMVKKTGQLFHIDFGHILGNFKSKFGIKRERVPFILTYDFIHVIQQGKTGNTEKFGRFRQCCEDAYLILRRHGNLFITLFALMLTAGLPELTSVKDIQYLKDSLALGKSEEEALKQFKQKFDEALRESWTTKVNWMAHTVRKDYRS
# Sequence (P27986 whole entry partner, species assumed): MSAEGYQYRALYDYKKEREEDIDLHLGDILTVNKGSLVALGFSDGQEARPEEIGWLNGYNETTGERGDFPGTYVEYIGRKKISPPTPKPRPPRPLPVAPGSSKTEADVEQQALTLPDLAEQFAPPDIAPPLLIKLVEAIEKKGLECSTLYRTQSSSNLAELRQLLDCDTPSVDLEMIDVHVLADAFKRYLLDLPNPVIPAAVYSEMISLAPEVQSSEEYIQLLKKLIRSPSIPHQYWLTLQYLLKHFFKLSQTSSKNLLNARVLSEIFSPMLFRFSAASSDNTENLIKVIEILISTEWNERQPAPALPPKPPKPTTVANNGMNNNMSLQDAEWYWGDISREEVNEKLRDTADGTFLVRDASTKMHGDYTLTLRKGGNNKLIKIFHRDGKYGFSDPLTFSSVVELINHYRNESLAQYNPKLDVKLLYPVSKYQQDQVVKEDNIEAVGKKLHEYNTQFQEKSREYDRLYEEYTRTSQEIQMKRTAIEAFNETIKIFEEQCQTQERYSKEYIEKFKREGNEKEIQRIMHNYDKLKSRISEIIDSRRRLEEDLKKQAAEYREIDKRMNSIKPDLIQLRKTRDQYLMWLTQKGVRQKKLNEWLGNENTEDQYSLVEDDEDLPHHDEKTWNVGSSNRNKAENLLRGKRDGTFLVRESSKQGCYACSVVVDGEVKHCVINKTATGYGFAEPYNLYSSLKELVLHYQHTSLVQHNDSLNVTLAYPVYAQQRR
Result type: pKi
Answers are plain numbers, as −log10 of the molar value.

If you can, please state the reported pKi value of Cc1cc(-c2cncc([C@@H](O)C(F)(F)F)c2)nc2c1C(=O)N(c1cnn(CC(F)F)c1)C2(C)C .
6.66

----------
# Assay explanation: Intravenous bolus pharmacokinetics
# Format: in vivo
# Condition label: in vivo; Monkey, single IV bolus, 0.5 mg/kg nominal; read-out: Vss
Result type: Vd (L/kg)
Numbers only, in L/kg.

Sample Cc1cc(-c2cncc([C@@H](O)C(F)(F)F)c2)nc2c1C(=O)N(c1cnn(CC(F)F)c1)C2(C)C — what was its Vd?
3.3
